Target: T1, 4H2343-AA
T1 chain: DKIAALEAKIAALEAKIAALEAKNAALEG
Assay: two-hybrid library CCmax;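 further: natural log of median RNA to DNA barcode read ratio; higher means stronger binding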
Conditions: mean of both orientations
Measured Property: interaction score
One number for each entry.

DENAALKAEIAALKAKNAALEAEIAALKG [4H1650-AA] : -1.44
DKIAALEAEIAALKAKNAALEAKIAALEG [4H2165-AA] : -1.25
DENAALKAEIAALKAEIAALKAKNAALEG [4H1615-AA] : -0.958

Dear colleague, could you send me interaction score for each of the items below? Thanks.
1. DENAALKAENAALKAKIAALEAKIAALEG [4H1765-AA]
2. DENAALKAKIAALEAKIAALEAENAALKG [4H1828-AA]
3. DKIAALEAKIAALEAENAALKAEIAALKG [4H2330-AA]

# output
-1.45
-1.69
-1.3
